Reported melting point values follow for various compounds

(Q) Identify measured melting point associated with Cc1ccccc1CC(=O)N1CCC(c2nc(NC(=O)C3CCCc4ccccc43)cs2)CC1 (stereo not drawn)
(A) 174 to 175 °C

(Q) Identify measured melting point associated with Cc1ccc(C)c(CS(=O)(=O)N2CCC(c3nc(NC(=O)c4ccccc4)cs3)CC2)c1
(A) 173 to 175 °C

(Q) Identify measured melting point associated with Cc1cc(C(F)(F)F)nn1CC(=O)N1CCC(c2nc(NC(=O)[C@@H]3CCCc4ccccc43)cs2)CC1
(A) 175 °C

(Q) Identify measured melting point associated with Cc1cc(C(F)(F)F)nn1CC(=O)N1CCN(c2nc(NC(=O)C3CCCc4ccccc43)cs2)CC1 (stereo not drawn)
(A) 207 to 209 °C

(Q) Identify measured melting point associated with Cc1cc(C(F)(F)F)nn1CC(=O)N1CCC(c2nc(NC(=O)Nc3ccccc3)cs2)CC1
(A) 192.6 °C

(Q) Identify measured melting point associated with Cc1cc(C(F)(F)F)nn1CC(=O)N1CCC(c2nc(NC(=O)c3cccc(Br)c3O)cs2)CC1
(A) 193 to 195 °C
